Assay notes: amyloid nucleation score (Sup35N fusion, yeast selection) (log enrichment); library NNK3; higher = more nucleation; inactive = no reads after selection;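 further: zero at mode of non-aggregating sequences after 7 days selection at 30°C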
Quantity: amyloid nucleation score

CKIRGCKVLLDFVMASVDLW : inactive
SILKFNQSLQSLFSNYYHLC : 1.14
LESINTLLNYVYYFNLVN : inactive
NVVSWVNHACGWRDRSATMS : inactive
RVRSDGANGWGVVMNACWMS : inactive

Return reported amyloid nucleation score; argument: `SFSFSKSNVSERDLCSTCTV` inactive

What would you report for `YLFWLYERRKGDYISPHVLR` ? inactive

What would you report for `LMLDFSIGRSPGDNAVICRH` ? inactive

What would you report for `LLRIPGF` ? inactive

What would you report for `SIFHLTSKVYISDWFC` ? 2

What would you report for `KLNAVYTRSAGWLSHQEM` ? inactive

What would you report for `HDHFWLYCMCNRTSGYLESF` ? inactive

What would you report for `QVILHHMADKKAFISTSSSS` ? 1.52

What would you report for `PYARRMWHGVLVRDIGLYTR` ? inactive

What would you report for `PTHLCFLQFTVAIFVSGIRA` ? 0.851

What would you report for `NIDNMSMVRILFNT` ? 1.44

What would you report for `PRFYANRFTVLFLYNLDI` ? -0.227

* * *

Assay notes: amyloid nucleation score (Sup35N fusion, yeast selection) (log enrichment); library NNK3; higher = more nucleation; inactive = no reads after selection
Quantity: amyloid nucleation score

YKRFMIPIKYCGGQRNTDVR : inactive
PSTSVPTDMMRFSIYSLLRS : inactive
HSRMWVTGLVSCVSGYMQVV : inactive
RQYWCFYQSWNSLG : inactive
NVRNLGRSFNWMSSCGNLCD : inactive
SSLIWNLSCELLTWLHVRRW : -1.3

Return reported amyloid nucleation score; argument: `SFMITFLIMRHVASFA` inactive

What would you report for `DIFVFILMLRTTDSWVLLS` ? inactive

What would you report for `DLFKMRLGTERGY` ? inactive

* * *

Assay notes: amyloid nucleation score (Sup35N fusion, yeast selection) (log enrichment); library NNK1; higher = more nucleation; inactive = no reads after selection
Quantity: amyloid nucleation score

The examples below pair each entry with its known result.
LRGRSPNYEALKMLYFFLLV : 0.314
RLGAGCSPSLVLS : 0.197
ERVSRSVGPACAREETKGST : 0.354
FSVRHLSVSVLRMGTHLLDA : -0.746
IITMIP : -0.514

Return reported amyloid nucleation score; argument: `TMAFVKLLNGSGNLEILKFS` 0.785

What would you report for `CMYTEACNWWGKYNCVGRQL` ? 0.235

What would you report for `FRNTERGEFNVVYGSPGFSR` ? 0.751

What would you report for `CVTAAEM` ? 0.762

What would you report for `GLRVPPHDVLMSIARLDVSK` ? inactive

What would you report for `FLSVASFTRI` ? 0.246

* * *

Assay notes: amyloid nucleation score (Sup35N fusion, yeast selection) (log enrichment); library NNK3; higher = more nucleation; inactive = no reads after selection
Quantity: amyloid nucleation score

VMYGEVSDTYMAREICKFSA : inactive
CMVNFS : inactive
TVVMWSSKDREVDSIDMSFV : inactive
YASVRVQFCCIFKSADRASP : 1.9
LWRTGRALWAMNWKAYIQFK : inactive
EQIGGI : inactive
GAFSYEVFPTGRPLFKTGGH : inactive
RCNHSCFGSIMGCVVLCPGE : 1.33
NKSLWGC : inactive
VCTKWGQYFCPYPVLCGWVR : inactive

We next turn to a different substance, shown below.
Return reported amyloid nucleation score; argument: `VKAVLY` inactive

* * *

Assay notes: amyloid nucleation score (Sup35N fusion, yeast selection) (log enrichment); library NNK1; higher = more nucleation; inactive = no reads after selection
Recorded measurements of amyloid nucleation score, one per entry
Reply with just the number.

The examples below pair each entry with its known result.
KSRGRKSSGDFPIRGD : 4.84
RTEGVET : -0.251
YLCLAECSLSPYNTTLVGGV : -1.6
KFLLLSCYIEWRLMSVLAKA : 0.968

Return reported amyloid nucleation score; argument: `QNLVLVKPEVFGTSRLLCGH` 0.184

What would you report for `SQRSMRRRRVRVIKDARYNW` ? 0.224

What would you report for `FSLLYV` ? 0.321

What would you report for `LHLNLLAQDHLCREMTAAMS` ? -0.771

What would you report for `GSSLTPCFEWMIIRCVEEDG` ? 1.05

* * *

Assay notes: amyloid nucleation score (Sup35N fusion, yeast selection) (log enrichment); library NNK1; higher = more nucleation; inactive = no reads after selection
Quantity: amyloid nucleation score
Reply with just the number.

The examples below pair each entry with its known result.
FHQDFDSWF : 0.362
RRHTLSFVTGFCVIGFYGGD : 4.48
DVVFGFLGVGKLIGVDTMRR : -0.725
GLTCMHPWWLSHAEKRLVEL : 1.05
SEYETG : 0.101

Return reported amyloid nucleation score; argument: `TYQRRL` -0.414

What would you report for `NSWVSINMCNVFGPHCMWTV` ? 7.21

What would you report for `LVPVWARLR` ? -0.686

What would you report for `MKDSGCPSGNNTALEGASLI` ? 0.269

What would you report for `NDTSNPVTLCHFV` ? 0.408

What would you report for `ITRPGKWGRGD` ? 0.782

What would you report for `HGNYTHQMTPAELFLRHMRF` ? -0.991

* * *

Recorded measurements of amyloid nucleation score, one per entry
Assay notes: amyloid nucleation score (Sup35N fusion, yeast selection) (log enrichment); library NNK2; higher = more nucleation; inactive = no reads after selection
Reply with just the number.

SAKHTWVISR : 0.098
SRTWAARNFLFRWVSPANFT : 0.119
CISVVFVRHNGNFVSFNELV : 6.41
NRWMRGDTVWNVGWWSPNWG : 0.173
CGMFWLSRYEFYRISSCRRL : 1.3

Return reported amyloid nucleation score; argument: `ILVREHFVSIKFLSR` -1.21

What would you report for `TRRWKALRP` ? 0.794

What would you report for `NMTHEA` ? -0.219

What would you report for `QFFTLFDVSRRLHFNTWLRL` ? -1.14

What would you report for `VTVNFSANARLCRLGLLNVC` ? -0.222

What would you report for `LFWFIYGSYRTVRACGRYSN` ? 0.516

What would you report for `CFAIFWLFECTTSSMKMTRV` ? 0.053

What would you report for `LHHFSVTYNSITFCLNFPFR` ? 4.11

What would you report for `NVFLRPSFRGVHK` ? 2.05

What would you report for `RCMGPIVPFDVNS` ? -0.704

What would you report for `KTLWPGTWGGLITRVWWYTR` ? 0.471

* * *

Assay notes: amyloid nucleation score (Sup35N fusion, yeast selection) (log enrichment); library NNK2; higher = more nucleation; inactive = no reads after selection
Output: class label from amyloid nucleation score. Mapping: low interval (below 0.07), middle interval (0.07 to below 0.4), high interval (0.4 or more)

Please review the following examples before continuing.
ALPKFSNNYLYEFLWFSRYL : low interval
LFVDKMCERDFYFVSSHRYR : middle interval
AYLQGSLMEKICKISCPVDN : low interval
SRVWFVNPAPYPADTSELAK : high interval
TVRLVWSWMHTPLFGPVTCA : middle interval
FVYNLTKTGLCYAQSVKYHN : low interval
GVYLGSPSYVDLSVALFSIV : middle interval
FPLVWA : high interval
HCYQTDRSHIICHELLHCFV : low interval
SYECPMHTLPVHSRSAYRST : high interval

Lab note: sort `TFSLLGL` into the matching amyloid nucleation score band. high interval

What would you report for `KARRPRIWDMDLLQLWANLP` ? high interval

* * *

Recorded measurements of amyloid nucleation score, one per entry
Assay notes: amyloid nucleation score (Sup35N fusion, yeast selection) (log enrichment); library NNK2; higher = more nucleation; inactive = no reads after selection
Reply with just the number.

EFQGVS : 0.343

Return reported amyloid nucleation score; argument: `LRIQCMMTLVWYSTPQSCNT` 5.56

What would you report for `YSLCTTPMRAWVSYVFDVR` ? -1.04

What would you report for `SWKGHIISSAHQQLESPSLW` ? 0.345

What would you report for `VVRCRWQDTRTVSQGWVIP` ? 0.97

What would you report for `YNSCSYEIILGDFLWLLTGQ` ? 0.624

What would you report for `GLSAHYA` ? 0.113

What would you report for `VDRHYRSLRFVVGQSVLHSK` ? 4.95

What would you report for `SMRFVLAF` ? -1.92

What would you report for `TITILV` ? 0.089

What would you report for `CMSIHCVTTSRVLKFNSKWY` ? 3.11
